test_name: Hydrolysis of 3H-cocaine by Mab's (kinetic measurements)
setup_conditions: Michaelis constant; pH that optimized kcat/ko: in general pH 7.8; 6A12 pH 7.4; 2A10 pH 7.0
property_name: Km (µM)
State just the number; it will be interpreted in µM.

For Mab 15A10: mouse monoclonal anti-cocaine catalytic antibody elicited by TSA 1; most active (antibody, V domains shown, mouse) VH: SGPELVKPGASVKVSCKASGYSFTDYNMYWVKQNHGESLEWIAYIDPSNGDTFYNQKFQGKATVTLDKSSSTAFMHLNSLTSEDSAVYYCARGGGLFAFWGQGTLVTVSA VL: AVVTQESALTTSPGETVTLTCRSSTGTITSDNYANWVQEKPDHLFSGLIGVNNYRPPGVPARFSGSLTGDKAVLTITGAQTEDEAIYFCALWYSNHWVFGGGTKLTVLG , what is its reported Km? 220

Record request: Km value, item Mab 3B9: anti-cocaine catalytic monoclonal antibody elicited by TSA 1 (antibody, V domains shown, mouse) VH: DVQLQESGPGLVKPSQSLSLTCTVTGNSITSDYAWTWIRQFPGNKLEWMGYIRHIYGTRYNPSLISRISITRDTSKNQFFLQLDSVTAEDTATYYCVRYHYYGSAYWGQGTLVTVSAAKTTP VL: DIVMTQDELSNPVTSGESVSISCRSSRSLLYRDGKTYLNWFLQRPGRSPQLLIYLMSTRSSGVSDRFSGSGSGTDFTLEISRVKAEDVGVYYCQHFVDYPFTFGSGTKLEIKR 490

Bench note: what Km did Mab 8G4G: anti-cocaine catalytic monoclonal antibody elicited by TSA 3 (antibody, mouse) heavy: VQLLESGAELVKPGASVELSCRTSGYTFTTYYIYWVKQRPGQGLEWIGGMNPGNGVTYFNEKFKNRATLTVDRSSSIAYMQLSSLTSEDSAVYYCTRVGNSLLTGAEGLWSLSLQ light: TRAGETVTLTCRSSSGTITANNYGSWVQEKPDHLFTGLIGVSNNRGPGVPARFSGSLIGDKAVLTITGGQTEDEAIYFCALWNSNHFVFGGGTKLTVLGQ show? 530
